Target: HLA A*3001 (Homo sapiens, UniProt P04439, D140H/D185E/E176W/F33S/G80R/H175R/K168Q/R138E/R41S)
Experiment: biochemical
Assay type: binding
Where a SMILES comes first, the peptide text is derived from it.
quantityMeasured: IC50
Note to self: number, then unit, no commentary.

>>> reportedmeasurement("CC[C@H](C)[C@H](NC(=O)[C@H](CO)NC(=O)[C@@H](NC(=O)[C@H](CCCCN)NC(=O)[C@H](CCCCN)NC(=O)[C@H](CCC(N)=O)NC(=O)[C@@H](N)CCCNC(=N)N)[C@@H](C)CC)C(=O)N[C@@H](CC(C)C)C(=O)N[C@H](C(=O)O)C(C)C [3102.0196] (H-RQKKISILV-OH)")
"0.36 nM"
>>> reportedmeasurement("CC(C)C[C@H](NC(=O)[C@H](CC(C)C)NC(=O)[C@H](Cc1ccc(O)cc1)NC(=O)[C@@H](NC(=O)[C@H](C)NC(=O)[C@H](CCCCN)NC(=O)[C@@H](NC(=O)[C@@H](N)C(C)C)C(C)C)[C@@H](C)O)C(=O)N[C@@H](CCCCN)C(=O)O [3102.0181] (H-VVKATYLLK-OH)")
"0.32 nM"

The value of IC50 measured for the compound CC[C@H](C)[C@H](NC(=O)[C@H](CCCCN)NC(=O)[C@H](CC(N)=O)NC(=O)[C@H](CO)NC(=O)[C@H](Cc1ccc(O)cc1)NC(=O)[C@H](CCCCN)NC(=O)[C@H](CC(C)C)NC(=O)[C@@H](NC(=O)[C@@H](N)CCCCN)[C@@H](C)O)C(=O)O [3102.0326] (H-KTLKYSNKI-OH) turned out to be 38 nM

###

Exercise: state measured Normalized average relative binding affinity(ARB) for each of the sequences provided.
Target: H-2 K^k (Mus musculus, UniProt P04223)
Type: binding
Answers are plain numbers.

>>> reportedmeasurement("XXXXYXXXX [3064.0100]")
0.14
>>> reportedmeasurement("XXXXXKXXX [3064.0109]")
0.34
>>> reportedmeasurement("XXXXXXHXX [3064.0127]")
0.26
>>> reportedmeasurement("XXXHXXXXX [3064.0067]")
0.13
>>> reportedmeasurement("XXXXXXXKX [3064.0149]")
0.13
>>> reportedmeasurement("XXXXXVXXX [3064.0118]")
0.59
>>> reportedmeasurement("XXXXXXWXX [3064.0139]")
0.064
>>> reportedmeasurement("XXXXXXLXX [3064.0130]")
0.10

Please give Normalized average relative binding affinity(ARB), item by item, for the list that follows.
1. XXXXSXXXX [3064.0096]
2. XXXXXXXPX [3064.0153]
3. XXXXVXXXX [3064.0098]
4. XXXRXXXXX [3064.0075]
5. XXXXEXXXX [3064.0084]
6. XXXXXYXXX [3064.0120]
7. XXXXXXNXX [3064.0132]

Response line:
1: 0.18; 2: 0.44; 3: 0.18; 4: 0.34; 5: 0.11; 6: 0.35; 7: 0.22

Would you mind listing Normalized average relative binding affinity(ARB) for each of the following sequences?
1. XXXXXXQXX [3064.0134]
2. XXXXTXXXX [3064.0097]
3. XXXXXXGXX [3064.0126]
4. XXXXXXPXX [3064.0133]
5. XXXXXFXXX [3064.0105]

Response line:
0.016
0.16
0.34
0.10
1.0

###

Biological target: HLA B*1503 (Homo sapiens, UniProt P01889, A329T/A93T/A95T/C349S/D201E/D98Y/E187L/E204Q/K202T/N87E/Q94N/R155S/R180L/S121R/S35A/V306I/V36M/Y140S/Y91S)
Experiment: biochemical
Where a SMILES comes first, the peptide text is derived from it.
quantityMeasured: IC50

>>> reportedmeasurement("CC(C)C[C@H](NC(=O)[C@H](CCC(=O)O)NC(=O)[C@H](CC(N)=O)NC(=O)[C@H](CCCNC(=N)N)NC(=O)[C@H](CC(=O)O)NC(=O)[C@H](CCCCN)NC(=O)[C@H](CC(C)C)NC(=O)[C@@H](N)CC(C)C)C(=O)N[C@@H](Cc1ccccc1)C(=O)O [3102.0842] (H-LLKDRNELF-OH)")
"16 nM"
>>> reportedmeasurement("CC[C@H](C)[C@H](NC(=O)[C@H](CCC(N)=O)NC(=O)[C@@H](N)CO)C(=O)N[C@H](C(=O)N[C@H](C(=O)N[C@@H](CC(C)C)C(=O)N[C@H](C(=O)N[C@@H](C)C(=O)N[C@@H](Cc1ccccc1)C(=O)O)[C@@H](C)O)[C@@H](C)O)[C@@H](C)CC [3102.1111] (H-SQIITLTAF-OH)")
"0.79 nM"

Measured IC50, CC(C)C[C@H](NC(=O)[C@@H](NC(=O)[C@H](CO)NC(=O)[C@@H](NC(=O)[C@H](CC(N)=O)NC(=O)[C@H](CC(C)C)NC(=O)[C@@H](N)CO)[C@@H](C)O)[C@@H](C)O)C(=O)NCC(=O)N[C@@H](Cc1ccccc1)C(=O)O [3102.1051] (H-SLNTSTLGF-OH) : 13 nM

###

Would you mind telling me the reported pIC50 of each entry?
Target: HLA B*1503 (Homo sapiens, UniProt P01889, A329T/A93T/A95T/C349S/D201E/D98Y/E187L/E204Q/K202T/N87E/Q94N/R155S/R180L/S121R/S35A/V306I/V36M/Y140S/Y91S)
Test: biochemical
Where a SMILES comes first, the peptide text is derived from it.
Give bare numbers, as −log10 of the molar value.

As a guide, the following entries are already answered.
>>> reportedmeasurement("CC(C)C[C@H](NC(=O)[C@@H](NC(=O)[C@H](CC(N)=O)NC(=O)[C@@H]1CCCN1C(=O)[C@@H]1CCCN1C(=O)[C@H](CO)NC(=O)[C@@H](NC(=O)[C@H](CO)NC(=O)[C@@H](N)CO)C(C)C)C(C)C)C(=O)O [3102.1131] (H-SSVSPPNVL-OH)")
7.74
>>> reportedmeasurement("N=C(N)NCCC[C@H](NC(=O)[C@H](CC(=O)O)NC(=O)[C@H](CCCCN)NC(=O)[C@H](CCC(=O)O)NC(=O)[C@H](Cc1ccccc1)NC(=O)[C@H](CCC(N)=O)NC(=O)[C@@H](N)CCCNC(=N)N)C(=O)N[C@@H](CO)C(=O)N[C@@H](Cc1ccccc1)C(=O)O [3102.1103] (H-RQFEKDRSF-OH)")
9.85
>>> reportedmeasurement("CC[C@H](C)[C@H](NC(=O)[C@@H](NC(=O)[C@@H](N)CCCCN)[C@@H](C)O)C(=O)N[C@@H](CC(N)=O)C(=O)N[C@@H](C)C(=O)N[C@@H](CC(C)C)C(=O)N[C@H](C(=O)N[C@@H](Cc1ccc(O)cc1)C(=O)N[C@@H](Cc1ccccc1)C(=O)O)C(C)C [3102.0359] (H-KTINALVYF-OH)")
7.64
>>> reportedmeasurement("CC[C@H](C)[C@H](NC(=O)[C@H](CO)NC(=O)[C@@H](N)Cc1ccccc1)C(=O)N[C@@H](CC(C)C)C(=O)N[C@@H](Cc1ccccc1)C(=O)N[C@@H](CO)C(=O)N[C@@H](CC(N)=O)C(=O)N[C@@H](CC(N)=O)C(=O)N[C@@H](Cc1ccccc1)C(=O)O [3102.1156] (H-FSILFSNNF-OH)")
7.52
>>> reportedmeasurement("CC[C@H](C)[C@H](NC(=O)[C@H](CS)NC(=O)[C@@H](NC(=O)[C@H](CC(N)=O)NC(=O)[C@@H]1CCCN1C(=O)[C@H](Cc1ccc(O)cc1)NC(=O)[C@H](CC(C)C)NC(=O)[C@@H](N)CO)C(C)C)C(=O)N[C@@H](Cc1ccccc1)C(=O)O [3102.1246] (H-SLYPNVCIF-OH)")
8.31
>>> reportedmeasurement("CC[C@H](C)[C@H](NC(=O)[C@H](CO)NC(=O)[C@H](CC(=O)O)NC(=O)[C@H](CO)NC(=O)[C@H](CC(N)=O)NC(=O)[C@H](CCC(N)=O)NC(=O)[C@H](CCC(N)=O)NC(=O)[C@@H](N)CO)C(=O)N[C@@H](Cc1ccccc1)C(=O)O [3102.1340] (H-SQQNSDSIF-OH)")
8.72

Now consider a different molecule.
get_value(item= CC[C@H](C)[C@H](N)C(=O)N[C@@H](CCC(N)=O)C(=O)N[C@@H](CCCNC(=N)N)C(=O)N[C@H](C(=O)N[C@@H](Cc1ccc(O)cc1)C(=O)N[C@@H](CO)C(=O)N[C@@H](CO)C(=O)N[C@@H](CO)C(=O)N[C@H](C(=O)O)[C@@H](C)CC)[C@@H](C)O [3102.1209] (H-IQRTYSSSI-OH) , readout=pIC50) returns 9.08
